Cited source for all entries: ChEMBL document CHEMBL6078645

Molecular target: Human immunodeficiency virus type 1 reverse transcriptase (Human immunodeficiency virus 1, UniProt Q72547)
Test: Inhibition of wildtype recombinant HIV-1 Reverse transcriptase incubated for 40 mins by spectrofluorometric analysis
measured_quantity: IC50

entry_smiles	value_reported
Cc1cc(-c2ccc(C#N)cc2)cc(C)c1Oc1nc(NC2CCN(Cc3ccc(C(=O)NCCCO)cc3)CC2)ncc1CO	463 nM
Cc1cc(-c2ccncc2)cc(C)c1Oc1nc(NC2CCN(Cc3ccc(C(=O)NCCCO)cc3)CC2)ncc1CO	355 nM
Cc1cc(-c2ccncc2)cc(C)c1Oc1nc(NC2CCN(Cc3ccc(S(N)(=O)=O)cc3)CC2)ncc1CO	192000 nM
COC(=O)/C=C/c1ccc(CN2CCC(Nc3ncc(CO)c(Oc4c(C)cc(-c5ccc(C#N)cc5)cc4C)n3)CC2)cc1	437 nM
Cc1cc(-c2ccc(C#N)cc2)cc(C)c1Oc1nc(NC2CCN(Cc3cccc([N+](=O)[O-])c3)CC2)ncc1CO	184 nM
CNS(=O)(=O)c1ccc(CN2CCC(Nc3ncc(CO)c(Oc4c(C)cc(-c5ccc(C#N)cc5)cc4C)n3)CC2)cc1	497 nM
CNC(=O)c1ccc(CN2CCC(Nc3ncc(CO)c(Oc4c(C)cc(-c5ccc(C#N)cc5)cc4C)n3)CC2)cc1	438 nM
Cc1cc(-c2ccc(C#N)cc2)cc(C)c1Oc1nc(NC2CCN(Cc3ccc(C#N)cc3)CC2)ncc1CO	297 nM
Cc1cc(-c2ccc(C#N)cc2)cc(C)c1Oc1nc(NC2CCN(Cc3ccc(S(=O)(=O)N4CCC(O)CC4)cc3)CC2)ncc1CO	595 nM
CNC(=O)c1cccc(CN2CCC(Nc3ncc(CO)c(Oc4c(C)cc(-c5ccc(C#N)cc5)cc4C)n3)CC2)c1	305 nM
Cc1cc(-c2ccncc2)cc(C)c1Oc1nc(NC2CCN(Cc3ccc(C(N)=O)cc3)CC2)ncc1CO	183 nM
Cc1cc(-c2ccc(C#N)cc2)cc(C)c1Oc1nc(NC2CCN(Cc3ccc(S(=O)(=O)NCCO)cc3)CC2)ncc1CO	413 nM
Cc1cc(-c2ccc(C#N)cc2)cc(C)c1Oc1nc(NC2CCN(Cc3ccc(S(=O)(=O)NCCCO)cc3)CC2)ncc1CO	543 nM
Cc1cc(-c2ccc(C#N)cc2)cc(C)c1Oc1nc(NC2CCN(Cc3ccc([N+](=O)[O-])cc3)CC2)ncc1CO	202 nM
Cc1cc(-c2ccncc2)cc(C)c1Oc1nc(NC2CCN(Cc3ccc(C(=O)NCCO)cc3)CC2)ncc1CO	222 nM
Cc1cc(-c2ccc(C#N)cc2)cc(C)c1Oc1nc(NC2CCN(Cc3ccccc3C#N)CC2)ncc1CO	226 nM

====

Biological target: UniProt:P05177
Sequence (P05177 whole entry): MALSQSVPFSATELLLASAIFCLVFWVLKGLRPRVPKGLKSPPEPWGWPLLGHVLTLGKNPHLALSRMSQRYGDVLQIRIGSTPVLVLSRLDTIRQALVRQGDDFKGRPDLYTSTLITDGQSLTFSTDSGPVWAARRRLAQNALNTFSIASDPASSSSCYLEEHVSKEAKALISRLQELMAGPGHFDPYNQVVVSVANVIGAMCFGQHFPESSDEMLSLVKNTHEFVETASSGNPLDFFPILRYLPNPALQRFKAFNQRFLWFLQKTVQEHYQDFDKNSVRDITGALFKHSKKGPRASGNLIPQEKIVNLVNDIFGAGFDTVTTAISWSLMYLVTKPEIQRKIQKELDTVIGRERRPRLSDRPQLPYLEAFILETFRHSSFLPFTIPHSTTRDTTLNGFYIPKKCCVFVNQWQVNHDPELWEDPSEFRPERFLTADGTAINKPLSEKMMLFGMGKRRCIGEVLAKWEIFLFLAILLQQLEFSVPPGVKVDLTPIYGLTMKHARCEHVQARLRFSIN
Assay: Inhibition of CYP1A2 in human liver microsome preincubated with compound for 10 minutes followed NADPH addition and measured after 15 mins by LC-MS/MS analysis
Assay type: ADME, microsomes
Conditions: human, human liver microsomes

entry_smiles	IC50 at 15 min
N#Cc1ccc(Nc2ncc(CO)c(Oc3c(F)cc(-c4ccc(C#N)cc4)cc3F)n2)cc1	> 25 µM

====

Assay: Cytotoxicity against human MT4 cells assessed as reduction in cell viability incubated for 5 days by MTT assay
Type: toxicity, cell-based
Details: MT4 cells, time 5 day
Listed below: log10(CC50 at 120 h) values for each entry.
measured_quantity: log10(CC50 at 120 h) (log10 of the value in µM)

entry_smiles	value_reported
Cc1cc(-c2ccc(C#N)cc2)cc(C)c1Oc1nc(NC2CCN(Cc3ccc(F)cc3)CC2)ncc1CO	0.75
COC(=O)c1ccc(CN2CCC(Nc3ncc(CO)c(Oc4c(C)cc(-c5ccc(C#N)cc5)cc4C)n3)CC2)cc1	1.14
COCCNS(=O)(=O)c1ccc(CN2CCC(Nc3ncc(CO)c(Oc4c(C)cc(-c5ccc(C#N)cc5)cc4C)n3)CC2)cc1	0.83
Cc1cc(-c2ccc(C#N)cc2)cc(C)c1Oc1nc(NC2CCN(Cc3ccc([N+](=O)[O-])cc3)CC2)ncc1CO	0.51
N#Cc1ccc(Nc2ncc(CO)c(Oc3c(F)cc(-c4ccc(C#N)cc4)cc3F)n2)cc1	2.35
Cc1cc(-c2ccc(C#N)cc2)cc(C)c1Oc1nc(NC2CCN(Cc3cccc(C(N)=O)c3)CC2)ncc1CO	1.26
Cc1cc(-c2ccc(C#N)cc2)cc(C)c1Oc1nc(NC2CCN(Cc3ccc(C(N)=O)cc3)CC2)ncc1CO	1.34
Cc1cc(-c2ccc(C#N)cc2)cc(C)c1Oc1nc(NC2CCN(Cc3ccc(OC(F)(F)F)cc3)CC2)ncc1CO	0.78
Cc1cc(-c2ccc(C#N)cc2)cc(C)c1Oc1nc(NC2CCN(Cc3ccc(C(=O)NCCO)cc3)CC2)ncc1CO	1.21
Cc1cc(-c2ccc(C#N)cc2)cc(C)c1Oc1nc(NC2CCN(Cc3cccc([N+](=O)[O-])c3)CC2)ncc1CO	0.87
CNS(=O)(=O)c1ccc(CN2CCC(Nc3ncc(CO)c(Oc4c(C)cc(-c5ccc(C#N)cc5)cc4C)n3)CC2)cc1	0.82
COCCNS(=O)(=O)c1ccc(CN2CCC(Nc3ncc(CO)c(Oc4c(C)cc(-c5ccncc5)cc4C)n3)CC2)cc1	1.66
Cc1cc(-c2ccc(C#N)cc2)cc(C)c1Oc1nc(NC2CCN(Cc3ccc(S(=O)(=O)NCCO)cc3)CC2)ncc1CO	1.19
Cc1cc(-c2ccc(C#N)cc2)cc(C)c1Oc1nc(NC2CCN(Cc3ccc(C#N)cc3)CC2)ncc1CO	0.68
Cc1cc(-c2ccc(C#N)cc2)cc(C)c1Oc1nc(NC2CCN(Cc3ccc(S(=O)(=O)NCCCO)cc3)CC2)ncc1CO	0.80
Cc1cc(-c2ccc(C#N)cc2)cc(C)c1Oc1nc(NC2CCN(Cc3cccc(C#N)c3)CC2)ncc1CO	0.76
COC(=O)/C=C/c1ccc(CN2CCC(Nc3ncc(CO)c(Oc4c(C)cc(-c5ccc(C#N)cc5)cc4C)n3)CC2)cc1	1.95
Cc1cc(-c2ccc(C#N)cc2)cc(C)c1Oc1nc(NC2CCN(Cc3ccccc3C#N)CC2)ncc1CO	0.71
CNC(=O)c1cccc(CN2CCC(Nc3ncc(CO)c(Oc4c(C)cc(-c5ccc(C#N)cc5)cc4C)n3)CC2)c1	1.31
Cc1cc(-c2ccc(C#N)cc2)cc(C)c1Oc1nc(NC2CCN(Cc3ccc(S(N)(=O)=O)cc3)CC2)ncc1CO	1.26
Cc1cc(-c2ccc(C#N)cc2)cc(C)c1Oc1nc(NC2CCN(Cc3ccc(C(F)(F)F)cc3)CC2)ncc1CO	0.70
Cc1cc(-c2ccc(C#N)cc2)cc(C)c1Oc1nc(NC2CCN(Cc3ccc(C(=O)NCCCO)cc3)CC2)ncc1CO	1.24

====

Tested on: Human immunodeficiency virus 1
Experiment: Antiviral activity against HIV-1 harboring RES056 mutant infected in human MT4 cells assessed as protection against virus-induced cytopathic effect incubated for 5 days by MTT assay
Type: functional, organism-based
Details: mt4
measured_quantity: EC50 (nM)

entry_smiles	target_entity	value_reported
Cc1cc(-c2ccc(C#N)cc2)cc(C)c1Oc1nc(NC2CCN(Cc3ccc(S(=O)(=O)N4CCC(O)CC4)cc3)CC2)ncc1CO	Human immunodeficiency virus 1	307

====

Assay: Solubility of compound in phosphate buffer at pH 7.4 incubated for 24 hrs by HPLC analysis
Format: physicochemical

entry_smiles	solubility at 24 h
Cc1cc(C#N)cc(C)c1Oc1nc(Nc2ccc(C#N)cc2)nc(N)c1Br	< 1 µg/mL
Cc1cc(-c2ccc(C#N)cc2)cc(C)c1Oc1nc(NC2CCN(Cc3ccc(S(N)(=O)=O)cc3)CC2)ncc1CO	< 1 µg/mL
Cc1cc(-c2ccc(C#N)cc2)cc(C)c1Oc1nc(NC2CCN(Cc3ccc(S(N)(=O)=O)cc3)CC2)ncc1CO.Cl	< 1 µg/mL

====

Assay: Selectivity index, ratio of CC50 for cytotoxicity against human MT4 cells assessed as reduction in cell viability to EC50 for antiviral activity against wild type HIV-1 IIIB infected in human MT4 cells assessed as protection against virus-induced cytopathic effect
Format: toxicity, cell-based
Conditions: MT4 cells, read-out: Ratio CC50/EC50
Returns Yes if the recorded selectivity ratio is greater than or equal to 1000, and No otherwise.

entry_smiles	class
COC(=O)/C=C/c1ccc(CN2CCC(Nc3ncc(CO)c(Oc4c(C)cc(-c5ccc(C#N)cc5)cc4C)n3)CC2)cc1	Yes
Cc1cc(-c2ccncc2)cc(C)c1Oc1nc(NC2CCN(Cc3cccc(C(N)=O)c3)CC2)ncc1CO	Yes
CNS(=O)(=O)c1ccc(CN2CCC(Nc3ncc(CO)c(Oc4c(C)cc(-c5ccc(C#N)cc5)cc4C)n3)CC2)cc1	Yes
COCCNS(=O)(=O)c1ccc(CN2CCC(Nc3ncc(CO)c(Oc4c(C)cc(-c5ccncc5)cc4C)n3)CC2)cc1	Yes
Cc1cc(-c2ccc(C#N)cc2)cc(C)c1Oc1nc(NC2CCN(Cc3ccccc3C#N)CC2)ncc1CO	No
Cc1cc(-c2ccc(C#N)cc2)cc(C)c1Oc1nc(NC2CCN(Cc3ccc(C(N)=O)cc3)CC2)ncc1CO	Yes
COC(=O)c1ccc(CN2CCC(Nc3ncc(CO)c(Oc4c(C)cc(-c5ccc(C#N)cc5)cc4C)n3)CC2)cc1	Yes
COCCNC(=O)c1ccc(CN2CCC(Nc3ncc(CO)c(Oc4c(C)cc(-c5ccncc5)cc4C)n3)CC2)cc1	Yes
Cc1cc(-c2ccc(C#N)cc2)cc(C)c1Oc1nc(NC2CCN(Cc3cccc(C#N)c3)CC2)ncc1CO	No
Cc1cc(-c2ccc(C#N)cc2)cc(C)c1Oc1nc(NC2CCN(Cc3ccc([N+](=O)[O-])cc3)CC2)ncc1CO	No
Cc1cc(-c2ccc(C#N)cc2)cc(C)c1Oc1nc(NC2CCN(Cc3ccc(C(=O)NCCO)cc3)CC2)ncc1CO	Yes
Cc1cc(-c2ccc(C#N)cc2)cc(C)c1Oc1nc(NC2CCN(Cc3cccc([N+](=O)[O-])c3)CC2)ncc1CO	No
Cc1cc(-c2ccc(C#N)cc2)cc(C)c1Oc1nc(NC2CCN(Cc3ccc(C(=O)NCCCO)cc3)CC2)ncc1CO	Yes
Cc1cc(-c2ccc(C#N)cc2)cc(C)c1Oc1nc(NC2CCN(Cc3ccc(OC(F)(F)F)cc3)CC2)ncc1CO	No
Cc1cc(-c2ccncc2)cc(C)c1Oc1nc(NC2CCN(Cc3ccc(S(N)(=O)=O)cc3)CC2)ncc1CO	Yes
Cc1cc(-c2ccncc2)cc(C)c1Oc1nc(NC2CCN(Cc3ccc(C(=O)NCCO)cc3)CC2)ncc1CO	Yes
